tested on: Plasmodium berghei; assay: Screen against P. berghei liver stage (PbLuc), transformed with Luciferase, at 10uM; type: functional, HepG2; conditions: tested at 10 uM
Among all 69,000 compounds or so, about 8,600 (12%) showed an effect of 50% or more. The entries come from a sample that favours strong results as a whole.
QUANTITY_NAME: INHIBITION (%)

> print(dat)
                                    compound  quantity.name  test.result
 1  Cc1nnc(-c2cccc(N3CCC(NC(C)CC(C)C)CC3)c2)s1 (centres undefined)     INHIBITION         62.4
 2  CNC(=O)[C@@H]1C[C@@H](N)CN1C1CCN(c2ccccc2F)CC1     INHIBITION           61
 3  CNC(=O)[C@@H]1C[C@@H](N)CN1C(=O)CCSCc1ccc(F)cc1     INHIBITION         9.63
 4  FC(F)(F)c1ccccc1CCC1CCCN(Cc2cscn2)C1 (centres undefined)     INHIBITION         76.7
 5  COc1cc(C2CC(=O)Oc3cc(C)[nH]c(=O)c32)ccc1OCC(=O)O (centres undefined)     INHIBITION         13.1
 6  NC(=O)c1cnn2c1NCC(CNCCOc1ccccc1)C2 (centres undefined)     INHIBITION       -18.43
 7  CC(C)CC(C)NC1CCN(c2cccc(-c3cscn3)c2)CC1 (centres undefined)     INHIBITION         34.1
 8  O=C(Nc1ccccn1)c1ccc(F)c(S(=O)(=O)NC2CC2)c1     INHIBITION         4.34
 9  CC(=O)N1CCC(NC(=O)Cc2nc3nc(C)cc(C)n3n2)CC1     INHIBITION         4.25
10  Cc1cc(-c2cccc(-c3ccn(CCCO)n3)c2)nc(N(C)C)n1     INHIBITION        -22.8
11  O=C(c1ccccn1)N1Cc2nccn2CC(CN2CCOCC2)C1 (centres undefined)     INHIBITION         38.7
12  Cc1nc(CN2CCCC(c3nc(C)n4c(C)c(C)sc34)C2)co1 (centres undefined)     INHIBITION         19.6
13  CCN(CC(F)(F)F)C(=O)C1CCCN(Cc2cscn2)C1 (centres undefined)     INHIBITION         -116
14  CC(C)c1noc(CCNC(=O)N2CCSC(C(C)C)C2)n1 (centres undefined)     INHIBITION         37.9
15  Cc1ccccc1CCC1CCCN(Cc2nnc(-c3ccco3)o2)C1 (centres undefined)     INHIBITION         35.6
16     CS(=O)(=O)CCOCCNc1ccc(C(F)(F)F)cc1C#N     INHIBITION        -13.4
17           Cc1cc(CNC2(c3ccc(Cl)cc3)CC2)no1     INHIBITION         16.8
18  CCNC(=O)[C@@H]1C[C@H](N)CN1C(=O)CCc1ccccc1Cl     INHIBITION        -6.83
19  Cc1nc(CN2CCCC(CCc3ccccc3C(F)(F)F)C2)co1 (centres undefined)     INHIBITION         74.5
20  Cc1nc(CN2CCCC(CCc3cccc(C(F)(F)F)c3)C2)co1 (centres undefined)     INHIBITION         62.4
21  COc1ccccc1COCC(O)CN1CC(n2cccn2)C1 (centres undefined)     INHIBITION        19.85
22  Cn1cc(CN2CCCC(CCc3ccccc3C(F)(F)F)C2)cn1 (centres undefined)     INHIBITION           43
23  CC1CCCN(Cc2coc(-c3cccc(F)c3)n2)C1 (centres undefined)     INHIBITION         18.6
24  CCNC(=O)[C@@H]1C[C@H](N)CN1C1CCN(c2ccccc2OC)CC1     INHIBITION         55.4
